Data provenance: ChEMBL document CHEMBL4145686

test-target: Glucocorticoid receptor (Sus scrofa, UniProt Q9N1U3)
Sequence (Q9N1U3 whole entry): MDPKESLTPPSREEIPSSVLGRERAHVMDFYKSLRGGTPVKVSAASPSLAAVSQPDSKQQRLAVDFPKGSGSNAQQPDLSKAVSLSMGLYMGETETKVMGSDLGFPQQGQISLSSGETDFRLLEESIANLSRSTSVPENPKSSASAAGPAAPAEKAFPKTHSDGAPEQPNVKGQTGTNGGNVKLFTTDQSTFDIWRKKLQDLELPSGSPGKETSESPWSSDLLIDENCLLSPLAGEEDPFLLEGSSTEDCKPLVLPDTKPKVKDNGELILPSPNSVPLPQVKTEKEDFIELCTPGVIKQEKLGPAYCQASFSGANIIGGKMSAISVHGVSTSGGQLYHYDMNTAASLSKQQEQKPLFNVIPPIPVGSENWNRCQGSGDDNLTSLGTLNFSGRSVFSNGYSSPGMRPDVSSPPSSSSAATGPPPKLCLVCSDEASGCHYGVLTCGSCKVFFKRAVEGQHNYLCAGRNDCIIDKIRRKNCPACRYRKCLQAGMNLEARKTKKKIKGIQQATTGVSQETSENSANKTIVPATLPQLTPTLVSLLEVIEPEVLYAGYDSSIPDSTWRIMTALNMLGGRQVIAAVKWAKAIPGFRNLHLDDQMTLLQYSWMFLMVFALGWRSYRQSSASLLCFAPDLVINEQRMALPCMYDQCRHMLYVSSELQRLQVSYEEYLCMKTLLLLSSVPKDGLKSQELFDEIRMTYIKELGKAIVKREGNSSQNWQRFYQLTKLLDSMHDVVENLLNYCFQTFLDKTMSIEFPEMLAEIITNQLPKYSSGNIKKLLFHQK
experiment-summary: Antagonist activity at GR in mini pig PBMC assessed as reduction in dexamethasone-induced FKBP5 gene expression incubated for 24 hrs by RT-qPCR method
Format: cell-based

smi	IC50
CC#C[C@]1(O)CC[C@H]2[C@@H]3CCC4=CC(=O)CCC4=C3[C@@H](c3ccc(N(C)C)cc3)C[C@@]21C	19.7 nM
CC(C)N(C)c1ccc([C@H]2C[C@@]3(C)[C@@H](CC[C@@]3(O)C#CC(C)(C)C)[C@@H]3CCC4=CC(=O)CC[C@@H]4[C@H]32)cc1	39.3 nM

----------
experiment-summary: Oral bioavailability in rat at 5 mg/kg
Format: ADME, organism-based
applied-conditions: in vivo

compound	bioavailability (%)
CC(C)(C)C#C[C@]1(O)CC[C@H]2[C@@H]3CCC4=CC(=O)CCC4=C3[C@@H](c3ccc(C4(C)COC4)cc3)C[C@@]21C	7.2
CC#C[C@]1(O)CC[C@H]2[C@@H]3CCC4=CC(=O)CCC4=C3[C@@H](c3ccc(N(C)C)cc3)C[C@@]21C [MIFEPRISTONE]	6.4
CC(C)N(C)c1ccc([C@H]2C[C@@]3(C)[C@@H](CC[C@@]3(O)C#CC(C)(C)C)[C@@H]3CCC4=CC(=O)CCC4=C32)cc1	23
CC(C)(C)C#C[C@]1(O)CC[C@H]2[C@@H]3CCC4=CC(=O)CCC4=C3[C@@H](c3ccc(N4CCCC4)cc3)C[C@@]21C	0.7
CCc1ccc([C@H]2C[C@@]3(C)[C@@H](CC[C@@]3(O)C#CC(C)(C)C)[C@@H]3CCC4=CC(=O)CCC4=C32)cc1	0
CN(C)c1ccc([C@H]2C[C@@]3(C)[C@@H](CC[C@@]3(O)C#CC(C)(C)C)[C@@H]3CCC4=CC(=O)CCC4=C32)cc1	37
COC(C)(C)C#C[C@]1(O)CC[C@H]2[C@@H]3CCC4=CC(=O)CC[C@@H]4[C@H]3[C@@H](c3ccc(N(C)C)cc3)C[C@@]21C	54
CC(C)N(C)c1ccc([C@H]2C[C@@]3(C)[C@@H](CC[C@@]3(O)C#CC(C)(C)C)[C@@H]3CCC4=CC(=O)CC[C@@H]4[C@H]32)cc1	24

----------
experiment-summary: Clearance in rat at 0.5 mg/kg, iv
Assay type: ADME, organism-based
applied-conditions: in vivo
Parameter threshold = 50 mL/min/kg. Response is TRUE when clearance meets or exceeds it, else FALSE.

smi	answer-label
CCc1ccc([C@H]2C[C@@]3(C)[C@@H](CC[C@@]3(O)C#CC(C)(C)C)[C@@H]3CCC4=CC(=O)CCC4=C32)cc1	FALSE
CC(C)N(C)c1ccc([C@H]2C[C@@]3(C)[C@@H](CC[C@@]3(O)C#CC(C)(C)C)[C@@H]3CCC4=CC(=O)CC[C@@H]4[C@H]32)cc1	FALSE
CC(C)(C)C#C[C@]1(O)CC[C@H]2[C@@H]3CCC4=CC(=O)CCC4=C3[C@@H](c3ccc(N4CCCC4)cc3)C[C@@]21C	FALSE
CC#C[C@]1(O)CC[C@H]2[C@@H]3CCC4=CC(=O)CCC4=C3[C@@H](c3ccc(N(C)C)cc3)C[C@@]21C	TRUE
CC(C)N(C)c1ccc([C@H]2C[C@@]3(C)[C@@H](CC[C@@]3(O)C#CC(C)(C)C)[C@@H]3CCC4=CC(=O)CCC4=C32)cc1	TRUE
COC(C)(C)C#C[C@]1(O)CC[C@H]2[C@@H]3CCC4=CC(=O)CC[C@@H]4[C@H]3[C@@H](c3ccc(N(C)C)cc3)C[C@@]21C	TRUE
CN(C)c1ccc([C@H]2C[C@@]3(C)[C@@H](CC[C@@]3(O)C#CC(C)(C)C)[C@@H]3CCC4=CC(=O)CCC4=C32)cc1	TRUE

----------
experiment-summary: Clearance in mouse at 0.5 mg/kg, iv
Format: ADME, organism-based
applied-conditions: in vivo
parameter: clearance

smi	value-measured
CC(C)N(C)c1ccc([C@H]2C[C@@]3(C)[C@@H](CC[C@@]3(O)C#CC(C)(C)C)[C@@H]3CCC4=CC(=O)CC[C@@H]4[C@H]32)cc1	27.2 mL/min/kg

----------
experiment-summary: AUC in mini pig at 10 mg/kg, po
Format: ADME, organism-based, Sus scrofa
applied-conditions: in vivo
parameter: AUC

smi	value-measured
CC(C)N(C)c1ccc([C@H]2C[C@@]3(C)[C@@H](CC[C@@]3(O)C#CC(C)(C)C)[C@@H]3CCC4=CC(=O)CC[C@@H]4[C@H]32)cc1	1720 ng·h/mL

----------
test-target: Glucocorticoid receptor (Homo sapiens)
Sequence (P04150 whole entry): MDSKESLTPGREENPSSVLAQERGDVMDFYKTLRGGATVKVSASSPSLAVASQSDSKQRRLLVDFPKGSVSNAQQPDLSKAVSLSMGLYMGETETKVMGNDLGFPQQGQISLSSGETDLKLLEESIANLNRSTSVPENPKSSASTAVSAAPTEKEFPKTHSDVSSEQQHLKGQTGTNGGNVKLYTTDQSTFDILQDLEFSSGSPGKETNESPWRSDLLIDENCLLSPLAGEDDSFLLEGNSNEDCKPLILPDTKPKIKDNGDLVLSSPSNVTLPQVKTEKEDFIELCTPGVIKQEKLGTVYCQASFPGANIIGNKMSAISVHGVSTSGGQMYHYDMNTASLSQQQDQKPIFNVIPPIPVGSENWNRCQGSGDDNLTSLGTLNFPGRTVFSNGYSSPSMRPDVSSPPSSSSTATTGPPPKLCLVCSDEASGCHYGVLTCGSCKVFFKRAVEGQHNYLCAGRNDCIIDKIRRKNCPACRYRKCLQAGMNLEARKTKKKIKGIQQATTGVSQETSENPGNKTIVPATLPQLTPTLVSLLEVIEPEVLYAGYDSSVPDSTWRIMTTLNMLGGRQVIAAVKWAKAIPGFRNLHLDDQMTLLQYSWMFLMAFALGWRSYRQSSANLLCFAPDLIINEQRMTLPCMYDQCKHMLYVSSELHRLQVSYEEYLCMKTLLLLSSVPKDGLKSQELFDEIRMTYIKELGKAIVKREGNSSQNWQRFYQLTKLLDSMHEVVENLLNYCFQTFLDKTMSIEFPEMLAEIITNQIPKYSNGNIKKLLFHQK
experiment-summary: Antagonist activity at human GR expressed in CHO-K1 cells assessed as reduction in dexamethasone-induced response incubated for 20 hrs by luciferase reporter gene assay
Assay type: cell-based

smi	IC50
CC(C)c1ccc([C@H]2C[C@@]3(C)[C@@H](CC[C@@]3(O)C#CC(C)(C)C)[C@@H]3CCC4=CC(=O)CCC4=C32)cc1	0.016 µM
CC#C[C@]1(O)CC[C@H]2[C@@H]3CCC4=CC(=O)CCC4=C3[C@@H](CC)C[C@@]21C	> 5 µM
CC#C[C@]1(O)CC[C@H]2[C@@H]3CCC4=CC(=O)CCC4=C3[C@@H](c3ccc(C(C)C)cc3)C[C@@]21C	0.00193 µM
CC(C)C#C[C@]1(O)CC[C@H]2[C@@H]3CCC4=CC(=O)CCC4=C3[C@@H](c3ccc(N(C)C)cc3)C[C@@]21C	0.026 µM
COc1cc([C@H]2C[C@@]3(C)[C@@H](CC[C@@]3(O)C#CC(C)(C)C)[C@@H]3CCC4=CC(=O)CCC4=C32)ccc1N(C)C	0.048 µM
COC(C)(C)C#C[C@]1(O)CC[C@H]2[C@@H]3CCC4=CC(=O)CC[C@@H]4[C@H]3[C@@H](c3ccc(N(C)C)cc3)C[C@@]21C	0.0146 µM
CN(C)c1c(F)cc([C@H]2C[C@@]3(C)[C@@H](CC[C@@]3(O)C#CC(C)(C)C)[C@@H]3CCC4=CC(=O)CCC4=C32)cc1F	0.043 µM
CC(C)(C)C#C[C@]1(O)CC[C@H]2[C@@H]3CCC4=CC(=O)CCC4=C3[C@@H](c3ccc(C4(C)COC4)cc3)C[C@@]21C	0.0096 µM
CC(C)N(C)c1ccc([C@H]2C[C@@]3(C)[C@@H](CC[C@@]3(O)C#CC(C)(C)C)[C@@H]3CCC4=CC(=O)CCC4=C32)cc1	0.043 µM
CN(C)c1ccc([C@H]2C[C@@]3(C)[C@@H](CC[C@@]3(O)C#CC(F)(F)F)[C@@H]3CCC4=CC(=O)CCC4=C32)cc1	0.0112 µM
CC(C)N(C)c1ccc([C@H]2C[C@@]3(C)[C@@H](CC[C@@]3(O)C#CC(C)(C)C)[C@@H]3CCC4=CC(=O)CC[C@@H]4[C@H]32)cc1	0.0056 µM
Cc1cc([C@H]2C[C@@]3(C)[C@@H](CC[C@@]3(O)C#CC(C)(C)C)[C@@H]3CCC4=CC(=O)CCC4=C32)ccc1N(C)C	0.028 µM
COc1ccc([C@H]2C[C@@]3(C)[C@@H](CC[C@@]3(O)C#CC(C)(C)C)[C@@H]3CCC4=CC(=O)CCC4=C32)cc1	0.0166 µM
CN(C)c1cccc([C@H]2C[C@@]3(C)[C@@H](CC[C@@]3(O)C#CC(C)(C)C)[C@@H]3CCC4=CC(=O)CCC4=C32)c1	0.205 µM
CN(C)c1cc(F)c([C@H]2C[C@@]3(C)[C@@H](CC[C@@]3(O)C#CC(C)(C)C)[C@@H]3CCC4=CC(=O)CCC4=C32)c(F)c1	0.0124 µM
CCC#C[C@]1(O)CC[C@H]2[C@@H]3CCC4=CC(=O)CCC4=C3[C@@H](c3ccc(N(C)C)cc3)C[C@@]21C	0.0085 µM
CC(C)(C)C#C[C@]1(O)CC[C@H]2[C@@H]3CCC4=CC(=O)CCC4=C3[C@@H](c3ccc(N4CCCC4)cc3)C[C@@]21C	0.0195 µM
CC#C[C@]1(O)CC[C@H]2[C@@H]3CCC4=CC(=O)CCC4=C3[C@@H](C3CCCCC3)C[C@@]21C	0.0181 µM
CCc1ccc([C@H]2C[C@@]3(C)[C@@H](CC[C@@]3(O)C#CC(C)(C)C)[C@@H]3CCC4=CC(=O)CCC4=C32)cc1	0.0175 µM
CN(C)c1ccc([C@H]2C[C@@]3(C)[C@@H](CC[C@@]3(O)C#CC(C)(C)C)[C@@H]3CCC4=CC(=O)CCC4=C32)cc1	0.0146 µM
CC#C[C@]1(O)CC[C@H]2[C@@H]3CCC4=CC(=O)CCC4=C3[C@@H](c3cccc(N(C)C)c3)C[C@@]21C	0.064 µM
CC(C)(C)C#C[C@]1(O)CC[C@H]2[C@@H]3CCC4=CC(=O)CCC4=C3[C@@H](c3ccc(N4CCS(=O)(=O)CC4)cc3)C[C@@]21C	0.0167 µM
